System: LOX IMVI
Assay: NCI tumour cell line growth inhibition, 48 h
Activity calls are given as the source filed them. No stated cut-off is given here; in the data, active = GI50 up to about 1.1 µM and inactive = higher.
Parameter measured: GI50

Observe how each entry below is paired with its result.
Cc1ccccc1S(=O)(=O)OC1NS(=O)(=O)c2ccccc21 (configuration not stated): > 100 µM (inactive)
CCOC(=O)c1ccc(/C(C)=N/NC(N)=S)cc1: > 100 µM (inactive)
[O-][n+]1onc2c1-c1nonc1CC2: 22.4 µM (inactive)
O=C(O)C#Cc1ccc([N+](=O)[O-])cc1: > 100 µM (inactive)
O=Cc1ccc(-c2nccc3c2[nH]c2ccccc23)o1: > 56.2 µM (inactive)

Summary for this molecule, CC#Cc1c(O)c2c(c(O)c1C#CC)C(=O)c1ccccc1C2=O : GI50 is 93.5 µM (inactive)

What the record says about c1cc2c3ccsc3c3sccc3c2s1 : GI50 is > 100 µM (inactive)
